# Experiment Notes: DUSP6 inhibitors restoring Erk phosphorylation by chemical complementation, primary imaging in DUSP6-transfected HeLa (AID 609)
# Experimental Parameters: HeLa MKP-3 transfected, phospho-Erk imaging KS statistic; measured here: nuclear pErk red intensity z-score; at 10 µM; stronger effect = higher value; cells stimulated with TPA for 15 min

# Molecule, z-score
rows = [
    ("CN1CCN(C(=O)CSc2nc(-c3cccs3)ccc2C#N)CC1", -0.831),
    ("CC(C)Oc1ccc2c(=O)c(-c3ccccc3)coc2c1", 0.614),
    ("CC(=N\\O)/C(CN(C)C)=N/O", -0.876),
    ("CCCC(=O)Nc1sc2c(c1C#N)CCCC2", -2.32),
    ("c1ccc(Cc2nnc3n2CCCCC3)cc1", -0.441),
    ("COC(=O)C1=C(C)NC(C)=C(C(=O)OC)C1c1ccccc1[N+](=O)[O-]", -0.998),
    ("O=C(O)CC1SC(=Nc2cccc(C(F)(F)F)c2)NC1=O (stereo unspecified)", 0.654),
    ("Cn1c(=O)cc(NCc2ccccc2)[nH]c1=O", -0.956),
    ("C=C(c1ccc(OCCO)cc1)c1ccc(OCCO)cc1", -0.652),
    ("COc1cccc(-c2nc(NCc3ccco3)c3ccccc3n2)c1O", 1.04),
    ("O=C(O)CCNC(=O)c1ccccc1", -1.08),
    ("CC(CCc1ccccc1)NCC(O)c1ccc(O)c(C(N)=O)c1 (stereo unspecified)", -0.807),
    ("Cc1cc(C)n(-c2nnc(C)n2/N=C/c2ccco2)n1", 0.108),
    ("CCCCCC(=O)N1CC2(CC)CN(C(=O)CCCCC)CC(CC)(C1)C2=O", -0.254),
    ("O=C(O)CC(NCc1ccco1)C(=O)OCC1CCCO1 (stereo unspecified)", -0.884),
    ("NS(=O)(=O)c1cc2c(cc1Cl)NC(C1C[C@H]3C=C[C@@H]1C3)NS2(=O)=O (stereo partly specified)", 0.0197),
    ("Cc1cc(C)n(C(=O)CN2C(=O)CCC2=O)n1", -0.956),
    ("O=C(Oc1ccccc1N1C(=O)CCC1=O)c1ccco1", 0.413),
    ("O=C(Nn1cnnc1)C(c1ccccc1)c1ccccc1", 1.08),
    ("COc1cccc(C2/C(=C(/O)c3ccc(C)cc3)C(=O)C(=O)N2Cc2ccco2)c1 (stereo unspecified)", -1.35),
    ("CCN1CCCC1Cn1cnc2c([nH]c3ccc(C)cc32)c1=O (stereo unspecified)", 0.149),
    ("Cn1c(NCC(O)c2ccccc2)nc2c1c(=O)n(Cc1ccc(Cl)c(Cl)c1)c(=O)n2C (stereo unspecified)", 1.81),
    ("Cc1ccc(C(=O)C2=C(O)C(=O)N(c3ncccn3)C2c2ccc(Cl)cc2)o1 (stereo unspecified)", 0.195),
    ("CCCCOC(=O)Nc1ccc(S(=O)(=O)Nc2nc(C)cc(C)n2)cc1", -0.786),
    ("CCCCCCSC1=C(C#N)C(c2ccccc2)CC(=O)N1 (stereo unspecified)", -1.53),
    ("CCOc1ccc(-n2c3nc4ccccc4nc3c3c(=O)n(Cc4ccco4)cnc32)cc1", -1.27),
    ("C[C@@H]1C[C@H](Nc2ccccc2)c2ccccc2N1C(=O)c1cccnc1", 0.461),
    ("CCOC(=O)c1c(C)n(C)c2ccc(OC)c(NC(=O)CCN3CCSCC3)c12", 0.641),
    ("Cn1ncc2c(Nc3ccccc3Br)ncnc21", -0.252),
    ("O=C(NC1CCCCC1)Nn1c(-c2ccccc2)nc2ccccc2c1=O", 0.432),
    ("CN(C)C/C(Cl)=C(\\Cl)c1ccccc1", 0.439),
    ("Cc1ccc2[nH]c3c(NCCN4CCOCC4)ncnc3c2c1", -0.0856),
    ("NC(Cc1ccc(Oc2ccc(O)cc2)cc1)C(=O)O (stereo unspecified)", -0.79),
    ("CCn1c(SCC(=O)O)nc2sc3c(c2c1=O)CCC3", -0.615),
    ("CCCC(=O)O[C@]1(C(=O)COC(C)=O)CC[C@H]2[C@@H]3C[C@H](F)C4=CC(=O)C=C[C@]4(C)[C@@]3(F)[C@@H](O)C[C@@]21C", 0.355),
    ("Oc1c(C=Nc2cccnc2)sc2ccccc12", 1.13),
    ("CCN(CC)C(=O)c1sc2nc(-c3cccs3)cc(-c3cccs3)c2c1N", -0.775),
    ("CC1(C)O[C@@H]2C[C@H]3[C@@H]4C[C@H](F)C5=CC(=O)CC[C@]5(C)[C@H]4[C@@H](O)C[C@]3(C)[C@]2(C(=O)CO)O1", 0.461),
    ("C=CCOc1nc2c(c(=O)n(C)c(=O)n2C)n1Cc1ccccc1Cl", 0.274),
    ("CC(NC(=O)NCCCC(=O)O)(C(F)(F)F)C(F)(F)F", 1.85),
    ("CC(C)CC(=O)Nc1ccccc1N1CCCC1", -0.804),
    ("CCCCC[C@H](O)/C=C/C1=C(CCCCCCC(=O)O)C(=O)CC1", -1.16),
    ("O=C1OC(Nc2ccc(Br)cc2F)c2ccccc21 (stereo unspecified)", 0.211),
    ("OC(CCN1CCCCC1)(c1ccccc1)c1ccccc1", -0.931),
    ("CC(C)(C)NC(=O)CSc1nsc(SCC(=O)NC(C)(C)C)c1C#N", 0.955),
    ("CN(C)c1ccc(C=NCCC2(O)CCOC(C)(C)C2)cc1 (stereo unspecified)", -0.362),
]
